System: UACC-257 melanoma
Measurement protocol: NCI tumour cell line growth inhibition, 48 h
Measured quantity: TGI

// each listed compound needs a value for TGI
1. CC1C(=O)OCC2=CCN3CCC(OC(=O)C(C)C1(C)O)C23 (configuration not stated)
2. COC(=O)C(CC(=O)Nc1ccc(C)cc1)C(=O)C(=O)Nc1ccccc1C(C)C (configuration not stated)

-- reply
1. > 100 µM
2. > 100 µM

// each listed compound needs a value for TGI
1. COC1OC(CO)C(O)C1N (configuration not stated)
2. Cc1ccccc1C1=C(C(=O)Nc2ccc(Cl)c(Cl)c2)NC(=S)NC1N (configuration not stated)
3. O=C(N/N=C(/CCN1CCCC1)CC(c1ccccc1)c1c(O)c2ccccc2oc1=O)c1ccncc1 (configuration not stated)
4. N#C/C(C(=O)Nc1ccc(Cl)cc1)=C(/N)N1CCCC1
5. O=C1NC2CCCCC2N=C1CC(=O)c1ccc(Br)cc1 (configuration not stated)
6. COc1cc2c(=O)n(CCN)c3c4cc5c(cc4ccc3c2cc1OC)OCO5

-- reply
["> 100 µM", "> 100 µM", "> 100 µM", "> 100 µM", "> 100 µM", "13.3 µM"]

###

Tested on: HL-60(TB) leukemia
Measurement protocol: NCI tumour cell line growth inhibition, 48 h
Record form. Attribute: TGI. Fill in for each entry.

Compound	TGI
CCP(=O)(OC)C1=CCN(C(=O)OCC[Si](C)(C)C)CC1 (centres undefined)	> 100 µM
C=C1OC(c2ccccc2NC)=NC12CCCCC2	> 100 µM
C=C(C)OCOCCOC	> 100 µM
COc1cc(C(c2c(O)c3ccccc3oc2=O)c2c(O)c3ccccc3oc2=O)cc(Br)c1O	64.2 µM
CN1CC[C@]2(C)c3ccc(O)cc3CC3CCCC1C32C (some centres undefined)	> 100 µM
Cc1[nH]nc(C(=O)n2nc(N)c3ccccc32)c1[N+](=O)[O-]	> 100 µM
C=C1C(=O)O[C@H]2[C@H]1CC/C(COC(=O)c1cc3cc(Cl)ccc3[nH]1)=C\CC[C@@]1(C)O[C@@H]21	2.3 µM
COc1ccc(N2C(=O)[C@H]3CC(C)c4c([nH]c5ccccc45)[C@H]3C2=O)cc1 (some centres undefined)	20.1 µM

-- ask Which TGI is reported with HL-60(TB) leukemia for this entry: N#CC1(O)CCCCCCCCCCC1 ?
-- reply > 100 µM

###

System: ACHN renal
Measurement protocol: NCI tumour cell line growth inhibition, 48 h; in the data active means GI50 below about 0.43 µM; inactive means the rest
Entry note: the call must match one of active, inactive

Here are 10 molecules together with their reported answers.
Molecule	Tgt	Label class
Cc1cc(S(=O)(=O)NC#N)c(S/C(=N\Nc2ccc([N+](=O)[O-])cc2)c2ccc(Cl)cc2)cc1Cl	ACHN renal	inactive
Cc1cc2c(cc1C)N(C(=O)CCl)CCN2C(=O)CCl	ACHN renal	inactive
O=C1c2cc(Cl)ccc2-c2c1c1ccc([N+](=O)[O-])cc1c(=O)n2CCCBr	ACHN renal	inactive
CCn1c2ccc(O)cc2c2c(C)c3c[n+](C)ccc3c(C)c21	ACHN renal	inactive
COc1cc(C(=O)Nc2cc3c(cc2Oc2cc(C)cc(C)c2)C(=O)N(C)[C@@H](CC(=O)N(C)O)C(=O)N3)c(Br)c(OC)c1OC	ACHN renal	active
O=C(O)C1CCCCC1C(=O)O.[NH-]C1CCC1.[NH2-].[Pt+2] (stereo not drawn)	ACHN renal	inactive
CCOc1cc(/C=N\Nc2nnc(C)n2N)c(C)cc1N(CCCl)CCCl	ACHN renal	inactive
COc1cc(-c2cn(-c3ccc(Cl)c(Cl)c3)c(=O)n2C(C)=O)cc(OC)c1OC	ACHN renal	inactive
CC[C@H](Nc1nc(C)nc(N)c1C#N)c1nc2cccc(NCc3ccc(C(=O)NO)cc3)c2c(=O)n1-c1ccccc1	ACHN renal	inactive
Cc1sc2nc3c4ccccc4c(NCCCN(C)C)nn3c(=O)c2c1C	ACHN renal	inactive

-- ask Which outcome did this test record for the molecule CNCCn1c(=O)c2cc(OC)c(OC)cc2c2ccc3cc4c(cc3c21)OCO4 ?
-- reply active

-- ask Now this one: COc1ccc(-c2ccc(-c3ccc(C(=N)N)cn3)o2)cc1
-- reply inactive

-- ask Now this one: COc1ccc(C2=NN(C=O)C(c3cccc(Nc4ccnc5cc(Cl)ccc45)c3)C2)cc1 (stereo not drawn)
-- reply inactive
